Measured values drawn from patent US5171851A for this set.

Tested on: blood-perfused sino-atrial preparation
Experiment: sinus rate on blood-perfused sino-atrial preparation
Parameters: species or system dog
Settings: Canis lupus familiaris, dose 30.0 ug; read-out: change of sinus rate (%)
Result Type: activation at 0.03 mg (%)
Numbers only, in %.

O=C1Nc2ccc(-n3ccnc3)cc2CO1 : 6.67
O=C1Nc2ccc(-n3cnc4ccccc43)cc2CO1 : 0.75
Cc1cn(-c2ccc3c(c2)COC(=O)N3)c(C)n1 : 1.67
Cc1nccn1-c1ccc2c(c1)COC(=O)N2 : 3.42

Take each entry in turn and give its activation at 0.03 mg.
1. Cc1cn(-c2ccc3c(c2)CSC(=O)N3)cn1
2. CCc1nc(C)cn1-c1ccc2c(c1)COC(=O)N2

5.6
1.65

* * *

Tested on: anesthetized cats
Test: cardiotonic effect on anesthetized cats
Assay type: in vivo, cat
Details: Felis catus; 0.01 mg/Kg iv; read-out: HR (%)
Result Type: change in vivo at 0.01 mg/kg (%)
One number for each entry, in %.

Cc1cn(-c2ccc3c(c2)COC(=O)N3)cn1 : 1.25

Kindly give each listed record's change in vivo at 0.01 mg/kg.
1. O=C1Nc2ccc(-n3ccnc3)cc2CS1
2. Cc1cn(-c2ccc3c(c2)CSC(=S)N3)cn1
3. Cc1cn(-c2cc(C)c3c(c2)COC(=O)N3)cn1
4. Cc1cn(-c2cc(C)c3c(c2)CSC(=O)N3)cn1
5. S=C1Nc2ccc(-n3ccnc3)cc2CS1

[1.6, 0, 2, 4.2, -1.1]

Give change in vivo at 0.01 mg/kg for all compounds that follow.
1. Cc1cn(-c2cc(C)c3c(c2)CSC(=S)N3)cn1
2. Cc1cn(-c2ccc3c(c2)CSC(=O)N3)cn1

1. 0
2. 0

* * *

Target: cyclic AMP phosphodiesterase (Canis lupus familiaris)
Construct: Two to four grams of left ventricular muscle was obtained
Sequence (A0A8I3NYE0 1-1135): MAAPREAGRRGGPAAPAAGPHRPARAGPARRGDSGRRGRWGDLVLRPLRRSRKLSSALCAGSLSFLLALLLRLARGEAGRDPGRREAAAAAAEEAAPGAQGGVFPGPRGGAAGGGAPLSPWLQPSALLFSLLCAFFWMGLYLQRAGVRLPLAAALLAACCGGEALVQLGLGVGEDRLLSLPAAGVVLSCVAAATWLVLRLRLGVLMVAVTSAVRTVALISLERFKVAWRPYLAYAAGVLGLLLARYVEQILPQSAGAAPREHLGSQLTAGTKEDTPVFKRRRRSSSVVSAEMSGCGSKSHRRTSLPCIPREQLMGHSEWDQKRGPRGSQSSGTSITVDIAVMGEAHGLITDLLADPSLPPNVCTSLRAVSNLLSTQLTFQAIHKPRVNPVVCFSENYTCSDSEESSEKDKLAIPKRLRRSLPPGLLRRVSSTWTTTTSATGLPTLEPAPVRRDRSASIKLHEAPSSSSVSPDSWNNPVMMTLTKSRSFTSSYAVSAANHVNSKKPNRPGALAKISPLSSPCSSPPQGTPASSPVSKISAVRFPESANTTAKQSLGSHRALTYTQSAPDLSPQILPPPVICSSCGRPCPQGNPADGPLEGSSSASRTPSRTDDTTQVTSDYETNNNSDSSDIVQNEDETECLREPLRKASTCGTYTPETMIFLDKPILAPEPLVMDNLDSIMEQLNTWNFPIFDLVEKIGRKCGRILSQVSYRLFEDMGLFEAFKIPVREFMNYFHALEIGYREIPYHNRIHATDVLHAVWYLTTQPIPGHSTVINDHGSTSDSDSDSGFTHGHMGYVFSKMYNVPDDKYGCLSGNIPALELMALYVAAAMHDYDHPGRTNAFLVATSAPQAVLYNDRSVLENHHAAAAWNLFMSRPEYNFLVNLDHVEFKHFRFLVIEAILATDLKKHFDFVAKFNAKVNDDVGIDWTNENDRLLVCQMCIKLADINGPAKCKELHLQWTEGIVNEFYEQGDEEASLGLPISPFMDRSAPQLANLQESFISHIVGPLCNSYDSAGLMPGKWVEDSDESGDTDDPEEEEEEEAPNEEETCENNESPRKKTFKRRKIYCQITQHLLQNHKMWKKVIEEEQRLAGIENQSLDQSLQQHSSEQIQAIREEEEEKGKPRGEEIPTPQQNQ
Experiment: effect on cyclic AMP phosphodiesterase isolated from dog's heart
Conditions: substrate 1.0 uM, pH 8.0; read-out: IC 50 (50% inhibition of substrate hydrolysis)
Result Type: IC50 (µM)
Numbers only, in µM.

IC50 measured on "Cc1nccn1-c1ccc2c(c1)COC(=O)N2" = 12.8
